The reported measurements were obtained from paper PMC11822212.

- System: HACAT cells
- Assay: qHTS cell viability (CellTiter-Glo, 72 h; primary screen), control cell line
- Type: cell-based, human
Where a name gives a salt, the structure may show the parent alone.
Observation type: HACAT_AUC
Give a plain numeric answer without units written out.

Cc1ccc([N+](=O)[O-])[c]2c1[O][Hg]2 [Nitromersol] :: 397.686
CCOc1cc(N2CCC(O)CC2)ccc1Nc1ncc2c(n1)N(C)c1ccccc1C(=O)N2C [XMD8-92] :: 464.723
COc1cc(NC(C)CCCN)c2ncccc2c1 (stereo not shown) [Primaquine diphosphate] :: 484.209
C#CCN(C)[C@H](C)Cc1ccccc1 [Selegiline hydrochloride] :: 471.82
CNC(=O)[C@H](CC1=CN=C2C=CCC=C12)NC(=O)[C@@H](CC(=O)NO)CC(C)C [GM-6001] :: 458.777

Q: Param readout= HACAT_AUC; system= HACAT cells; entry= CC(Cc1ccccc1)NCCn1cnc2c1c(=O)n(C)c(=O)n2C (stereo not shown) [Fenethylline hydrochloride] ; returns value.
Result: 497.83

Q: # value lookup — system HACAT cells, readout HACAT_AUC, item Cc1ncc(CNC(=O)N(CCCl)N=O)c(N)n1 [Nimustine]
Result: 461.645

* * *

- System: VN-MCC cell lines (MCC13, MCC26, UISO)
- Assay: qHTS cell viability, VN-MCC cell lines as a group (mean AUC, VN.MCC.avg)
- Assay type: cell-based, human
Counter-ions that a name gives are not always drawn.
Quick reference: VN-MCC_Avg_AUC of the listed items.

Some entries whose results are on file:
CNC(=O)[C@H](CC1=CN=C2C=CCC=C12)NC(=O)[C@@H](CC(=O)NO)CC(C)C :: 478.29
C#CCN(C)[C@H](C)Cc1ccccc1 [Selegiline hydrochloride] :: 458.075
COc1cc(CCN)c(OC)cc1Br.Cl :: 398.986
Cc1ccc([N+](=O)[O-])[c]2c1[O][Hg]2 :: 326.845
CC[N+](CC)(CC)CCOc1ccc(/C=C/c2ccccc2)cc1 [Stilonium iodide] :: 401.249

Please examine the following record next.
Q: # query: VN-MCC_Avg_AUC of entry "CC(C)(O)/C=C/C(=O)[C@](C)(O)[C@H]1[C@H](O)C[C@@]2(C)[C@@H]3CC=C4[C@@H](C=C(O)C(=O)C4(C)C)[C@]3(C)C(=O)C[C@]12C"
Result: 297.712

* * *

Measured WAGA_AUC accompanies every entry in the list below.
- Tested on: WAGA cells (VP-MCC)
- Assay: qHTS cell viability (CellTiter-Glo, 72 h; primary and follow-up small molecule screen)
- Type: cell-based, human
The answer should be a number; do not append a unit.

Illustrative cases are given below, each with its answer.
C[C@H](CN1CCOCC1)C(C(=O)N1CCCC1)(c1ccccc1)c1ccccc1.O=C(O)C(O)C(O)C(=O)O [Dextromoramide tartrate] :: 399.942
CCOc1cc(N2CCC(O)CC2)ccc1Nc1ncc2c(n1)N(C)c1ccccc1C(=O)N2C [XMD8-92] :: 403.248
CCC(=O)O[C@@H]1C=C2CCC3C(CCC4(C)C3CC[C@@H]4OC(=O)CC)C2CC1 (some centres unmarked) [Bolandiol dipropionate] :: 383.532
CNC(C)Cc1ccc2c(c1)OCO2.Cl (centres unmarked) :: 422.784

We now examine a further compound.
Q: Param item = CC(N[C@H]1CCCC[C@@H]1NC(=O)c1ccc(Cl)cc1)c1cccc2ccccc12 (some centres unmarked) [Calhex-231] ; retrieve measured WAGA_AUC.
Result: 428.682
